tested on: HCT-15; assay: Cytotoxicity against Homo sapiens (human) HCT15 cells after 48 hr by SRB assay; format: functional; settings: HCT-15, 48 h
observed-property: GI50
Your reply should be a number followed by the unit it is expressed in.

Some solved entries appear below for comparison.
O=S(=O)(/N=c1\scc(-c2ccccc2)n1-c1ccccc1)c1ccc(N2N=C3c4ccccc4CC3C2c2cccs2)cc1 (stereo not drawn)	67.4 µM
NS(=O)(=O)c1ccc(-n2nc3c(c2-c2cccs2)Cc2ccccc2-3)cc1	12 µM
O=C(NC1CCCCC1)NS(=O)(=O)c1ccc(-n2nc3c(c2-c2cccs2)Cc2ccccc2-3)cc1	17.8 µM
O=C1CCS/C(=N\S(=O)(=O)c2ccc(N3N=C4c5ccccc5CC4C3c3cccs3)cc2)N1c1ccccc1 (stereo not drawn)	15.9 µM
O=C(Nc1ccccc1)NS(=O)(=O)c1ccc(-n2nc3c(c2-c2cccs2)Cc2ccccc2-3)cc1	16.9 µM

For each of the items listed, what is its GI50?
1. O=C(Nc1ccccc1)NS(=O)(=O)c1ccc(N2N=C3c4ccccc4CC3C2c2cccnc2)cc1 (stereo not drawn)
2. O=C1CS/C(=N\S(=O)(=O)c2ccc(N3N=C4c5ccccc5CC4C3c3cccs3)cc2)N1C(=O)c1ccccc1 (stereo not drawn)
3. O=C(c1ccccc1)n1c(-c2ccccc2)cs/c1=N\S(=O)(=O)c1ccc(N2N=C3c4ccccc4CC3C2c2cccs2)cc1 (stereo not drawn)
4. O=C1CS/C(=N\S(=O)(=O)c2ccc(N3N=C4c5ccccc5CC4C3c3cccs3)cc2)N(c2ccccc2)C1 (stereo not drawn)

(A)
1. 23.1 µM
2. 56.3 µM
3. 61.4 µM
4. 35.5 µM

Please state, for each entry, its recorded GI50.
1. O=S(=O)(NC(=S)Nc1ccccc1)c1ccc(N2N=C3c4ccccc4CC3C2c2cccs2)cc1 (stereo not drawn)
2. NS(=O)(=O)c1ccc(N2N=C3c4ccccc4CC3C2c2cccs2)cc1 (stereo not drawn)
3. O=C(NC(=S)NS(=O)(=O)c1ccc(N2N=C3c4ccccc4CC3C2c2cccs2)cc1)c1ccccc1 (stereo not drawn)
4. O=C1CCS/C(=N\S(=O)(=O)c2ccc(N3N=C4c5ccccc5CC4C3c3cccs3)cc2)N1C(=O)c1ccccc1 (stereo not drawn)

(A)
1: 22.6 µM; 2: 34.7 µM; 3: 30.2 µM; 4: 15.1 µM
